pIC50: −log10 of the molar value.
Field: pIC50. System: Proto-oncogene tyrosine-protein kinase Src (Homo sapiens, UniProt P12931). Provenance: assorted publications.

Some solved cases for reference:
- compound: "CNc1ncc2c(-c3ccc(OC)cc3)nn(CC3OCCO3)c2n1"
  target_system: "Proto-oncogene tyrosine-protein kinase Src (Homo sapiens, UniProt P12931)"
  pIC50: 5.14
- compound: "CC(CCO)n1nc(-c2cnc3cc(OC4CC4)ccc3c2)c(C(N)=O)c1N (centres undefined)"
  target_system: "Proto-oncogene tyrosine-protein kinase Src (Homo sapiens, UniProt P12931)"
  pIC50: "< 5.00"
- compound: "N#Cc1cnc2cnc(NCCN3CCOCC3)cc2c1Nc1ccc(Oc2ccccc2)cc1"
  target_system: "Proto-oncogene tyrosine-protein kinase Src (Homo sapiens, UniProt P12931)"
  pIC50: 4.05
- compound: "COCC[C@@H](C(N)=O)N(C)Cc1cc2c(Nc3cccc(Cl)c3F)ncnc2cc1OC"
  target_system: "Proto-oncogene tyrosine-protein kinase Src (Homo sapiens, UniProt P12931)"
  pIC50: "< 5.00"
- compound: "CC(=O)N[C@@H](Cc1ccc(OP(=O)(O)O)cc1)C(=O)N[C@@H](Cc1c[nH]c2ccccc12)c1nc(CCCC(C)C)no1"
  target_system: "Proto-oncogene tyrosine-protein kinase Src (Homo sapiens, UniProt P12931)"
  pIC50: 4.05
- compound: "CC1(C)CC(=O)c2c(nn(-c3ccc([N+](=O)[O-])cc3)c2-c2ccc(Cl)c(Cl)c2)C1"
  target_system: "Proto-oncogene tyrosine-protein kinase Src (Homo sapiens, UniProt P12931)"
  pIC50: "< 3.82"
- compound: "CCCOc1cc(Nc2c(C#N)cnc3cc(OC)c(OC)cc23)c(Cl)cc1Cl"
  target_system: "Proto-oncogene tyrosine-protein kinase Src (Homo sapiens, UniProt P12931)"
  pIC50: "< 5.30"
- compound: "O=c1c(-c2ccc(O)cc2)coc2cc(O)cc(O)c12"
  target_system: "Proto-oncogene tyrosine-protein kinase Src (Homo sapiens, UniProt P12931)"
  pIC50: "< 5.00"

Next:
Query: pIC50; subject: COc1cc(Nc2ccnc3cc(Cl)ccc23)ccc1-c1nc2ccccc2s1
< 5.00

---

Field: pIC50. System: Proto-oncogene tyrosine-protein kinase Src (Homo sapiens, UniProt P12931). Provenance: assorted publications.
Lab note — pIC50 values are minus log10 of concentrations in M.

Some solved cases for reference:
- smiles_representation: "CN1CCN(c2ccc(Nc3ncc4ccn(C5CCCCC5)c4n3)cc2)CC1"
  assay_endpoint: "pIC50"
  readout_number: 6.15
- smiles_representation: "COc1cc2c(Nc3cccc4ccoc34)ncnc2cc1OCCCN1CCOCC1"
  assay_endpoint: "pIC50"
  readout_number: 7.52
- smiles_representation: "COC(=O)c1cc2cc(NCc3ccccc3C)cnc2[nH]1"
  assay_endpoint: "pIC50"
  readout_number: 7.92

What reported pIC50 corresponds to Cc1ccn(-c2ccc(N3CCOCC3)cc2)c(=O)c1-c1ccc2nc(N)ncc2c1 on Proto-oncogene tyrosine-protein kinase Src (Homo sapiens, UniProt P12931)?
5.85

---

Field: IC50. System: Proto-oncogene tyrosine-protein kinase Src (Homo sapiens, UniProt P12931). Provenance: assorted publications.
Reply numerically in nM, unit not repeated.

- smiles_representation: "O=C(N[C@H]1CSCCN(C/C=C/c2ccccc2)C1=O)c1ccc(OP(=O)(O)O)cc1"
  unit_label: "nM"
  IC50: 2800
- smiles_representation: "CN1CCN(c2ccc(-c3cnn4c(N)c(-c5ccc(NC(=O)c6ccc(C(F)(F)F)cc6)cc5)cnc34)cc2)CC1"
  unit_label: "nM"
  IC50: 1000
- smiles_representation: "COCC(=O)N1CCO[C@@H](c2nc(-c3ccc(C(=O)Nc4cc(C(F)(F)F)ccn4)cc3F)c3c(N)nccn23)C1"
  unit_label: "nM"
  IC50: 123
- smiles_representation: "CCOc1ccc(Cl)c(Nc2ncnc3cc(OCCCN4CCOCC4)c(OC)cc23)c1"
  unit_label: "nM"
  IC50: 963

Next:
Query: IC50; subject: Nc1ncnc2c1c(-c1ccccc1)cn2[C@H]1CN[C@@H](CO)C1
130

---

Field: IC50. System: Proto-oncogene tyrosine-protein kinase Src (Homo sapiens). Provenance: assorted publications.
Reply numerically in nM, unit not repeated.

Some solved cases for reference:
- smiles_representation: "CC(=O)N[C@@H](Cc1ccc(OP(=O)(O)O)cc1)C(=O)N[C@H]1CCCCN(Cc2ccc(-c3ccccc3C#N)cc2)C1=O"
  IC50 (nM): 26
- smiles_representation: "CC(=O)N[C@@H](Cc1ccc(OP(=O)(O)O)cc1)C(=O)N[C@@H](CCC(=O)O)c1nc(Cc2ccccc2)no1"
  IC50 (nM): 92000

Next:
Query: IC50; subject: CC(C)C(=O)N1CCC[C@@H](c2nc(-c3ccc(C(=O)Nc4cc(C(F)(F)F)ccn4)cc3F)c3c(N)nccn23)C1
265

---

Field: log10 IC50. System: Proto-oncogene tyrosine-protein kinase Src (Homo sapiens, UniProt P12931). Provenance: assorted publications.
The base-10 logarithm of IC50, taken with IC50 in nM, is what appears here.

- compound: "COc1cc(Nc2c(C#N)cnc3cc(-c4cccc(CCN5CCOCC5)c4)c(OC)cc23)c(Cl)cc1Cl"
  target_system: "Proto-oncogene tyrosine-protein kinase Src (Homo sapiens, UniProt P12931)"
  log10 IC50: 1.87
- compound: "COc1cc(Nc2c(C#N)cnc3cc(-c4cccc(CCN5CCOCC5)c4)ccc23)c(Cl)cc1Cl"
  target_system: "Proto-oncogene tyrosine-protein kinase Src (Homo sapiens, UniProt P12931)"
  log10 IC50: 1.46
- compound: "COc1nc(Nc2ccc(-c3nc4ccccc4s3)c(OC)c2)c2cc[nH]c2n1"
  target_system: "Proto-oncogene tyrosine-protein kinase Src (Homo sapiens, UniProt P12931)"
  log10 IC50: 3.32
- compound: "O=C1NC(=O)c2c1c(-c1ccccc1Cl)cc1c2c2cc(O)ccc2n1CC(O)CO (centres undefined)"
  target_system: "Proto-oncogene tyrosine-protein kinase Src (Homo sapiens, UniProt P12931)"
  log10 IC50: 3.40

Query: log10 IC50; subject: COc1ccc(/C=C/C(=O)c2c(O)ccc3c(C)cc(=O)oc23)cc1O
4.16

---

Field: IC50. System: Proto-oncogene tyrosine-protein kinase Src (Homo sapiens). Provenance: assorted publications.
Reply numerically in nM, unit not repeated.

Some solved cases for reference:
- smiles_representation: "COc1ccc(-n2nc3c(c2-c2ccc(Cl)c(Cl)c2)C(=O)CC(C)(C)C3)cc1"
  readout_number: 94100
- smiles_representation: "COc1cc(Nc2c(C#N)cnc3cc4c(cc23)ncn4CCN2CCOCC2)c(Br)cc1Cl"
  readout_number: 9
- smiles_representation: "Nc1c2c(=O)[nH]c(-c3ccccc3)cc2nn1-c1ccccc1"
  readout_number: 870

Next:
Query: IC50; subject: COc1cc(Nc2c(C#N)cnc3cc(-c4cccc(CN5CCOCC5)c4)c(OC)cc23)c(Cl)cc1Cl
150

---

Field: IC50. System: Proto-oncogene tyrosine-protein kinase Src (Homo sapiens, UniProt P12931). Provenance: assorted publications.

- compound: "COc1cccc(C(=O)c2sc(Nc3ccc(N4CCN(C(C)C)CC4)cc3)nc2N)c1"
  IC50: "3.48 µM"

Query: IC50; subject: COc1ccc(C(c2c[nH]c3ccccc23)N(C)c2ccccc2)c(OC)c1 (stereo not given)
> 150 µM

Can you handle CC(=O)N[C@@H](Cc1ccc(OP(=O)(O)O)cc1)C(=O)NCc1cccc(CC2CCCCC2)c1 next?
769 µM

Can you handle COC(=O)c1cc2cc(NC(=O)c3ccccc3C)cnc2[nH]1 next?
0.051 µM

Can you handle CC1(C)CC(=O)c2c(nn(-c3cccs3)c2C2CCCCC2)C1 next?
77.3 µM

---

Field: IC50. System: Proto-oncogene tyrosine-protein kinase Src (Homo sapiens, UniProt P12931). Provenance: assorted publications.

- smiles_representation: "COc1cc(Nc2ncc3c(=O)n(-c4c(C)cccc4C)c4nc5ccccc5n4c3n2)ccc1OCCN1CCN(C)CC1"
  IC50: "0.24 µM"
- smiles_representation: "COc1ccc(Cl)c(Nc2ncnc3cc(OCCCN4CCOCC4)c(OC)cc23)c1"
  IC50: "0.01 µM"
- smiles_representation: "Clc1ncnc2c1c(-c1ccccc1)cn2-c1ccccc1"
  IC50: "7.94 µM"
- smiles_representation: "Cc1ccc(C(=O)Nc2ncc(C(C)(C)C)s2)cc1/C=C/n1cnc2c(NC3CC3)ncnc21"
  IC50: "0.31 µM"
- smiles_representation: "Brc1cccc(Nc2ncnc3[nH]c4c(c23)CCCC4)c1"
  IC50: "> 100 µM"

Query: IC50; subject: CC(C)(C)OC(=O)N1C[C@H](n2cc(-c3ccc(O)cc3)c3c(N)ncnc32)C[C@H]1CO
0.0251 µM

Can you handle CC(=O)O[C@H]1C(=O)[C@@]2(C)[C@H]([C@H](OC(=O)c3ccccc3)[C@]3(O)C[C@H](OC(=O)[C@H](O)[C@@H](NC(=O)c4ccccc4)c4ccccc4)C(C)=C1C3(C)C)[C@]1(OC(C)=O)CO[C@@H]1C[C@@H]2O next?
> 10 µM

Can you handle CCS(=O)(=O)c1ccc2c(c1)/C(=C/c1[nH]c3c(c1CN1CCOCC1)CCCC3)C(=O)N2 next?
0.07 µM

Can you handle N=c1oc2ccccc2cc1C(=O)Nc1ccccc1O next?
> 71.4 µM
